System: SNB-19 CNS
Assay: NCI tumour cell line growth inhibition, 48 h
Parameter TGI: see the listing below.
reported property: TGI (µM)

- COc1ccc(/C=C2/CCc3cc4ccc(OC)cc4[o+]c32)c(O)c1: 25.6
- CCCCCCCCCCCC[n+]1ccccc1 (tested in a mixture with another compound): 3.48
- COc1ccc(C(OCC2OC(n3cc(C)c(=O)[nH]c3=O)CC2n2cc(Cn3cc(F)c(=O)[nH]c3=O)nn2)(c2ccccc2)c2ccccc2)cc1 (centres undefined): 22.8

* * *

Parameter log10(TGI): see the listing below.
System: HCC-2998 colon
Experiment: NCI tumour cell line growth inhibition, 48 h
reported property: log10(TGI) (log10 of the value in µM)

- CCC(=C(c1ccc(OCCCN(C)C)cc1)c1ccc(OCCCN(C)C)cc1)c1ccc(Cl)cc1: 0.19
- CC(C)COP(=O)(OCC(C)C)C(NS(=O)(=O)c1ccccc1)(C(F)(F)F)C(F)(F)F: 1.27
- COc1ccc(C(OCC2OC(n3cc(C)c(=O)[nH]c3=O)CC2n2cc(Cn3cc(F)c(=O)[nH]c3=O)nn2)(c2ccccc2)c2ccccc2)cc1 (centres undefined): 1.18
- COCCOCCOCc1n(Cc2ccc3ccccc3n2)c2ccccc2[n+]1Cc1ccc2ccccc2c1: 0.31
- O=P(c1ccccc1)(c1ccccc1)N1O[C@@H](c2ccccc2)C=C[C@H]1c1ccccc1: 1.44
- O=C1C(SCCO)=C(SCCO)C(=O)c2ccccc21: 0.53
- CC1CC[C@@]2(OC1)OC1C[C@H]3[C@@H]4CC[C@H]5CC(OC6OC(CO)C(OC7OC(CO)C(O)C(O)C7OC7OC(CO)C(O)C(O)C7O)C(O)C6O)CCC5(C)[C@H]4CCC3(C)C1[C@@H]2C (some centres undefined): 0.31
- CCCCCCCCCCCC[n+]1ccccc1 (tested in a mixture with another compound): 0.33

* * *

Test system: A549 NSCLC
Test: NCI tumour cell line growth inhibition, 48 h; in the data active = GI50 below about 0.43 µM; inactive = the rest
Outcome codes: Y for active, N for inactive

- O=C(O)CCC(NC(=S)S)C(=O)O.[Na+].[Zn+2] (stereo unspecified): N
- c1ccc(Cn2cnc3ccc(-c4nc(-c5ccc6c(c5)ncn6C5CCCCC5)cn5ccnc45)cc32)cc1: N
- C[C@H](Cn1ncnn1)Nc1ncc2cc(Oc3ccc(F)cc3F)c(=O)n(C)c2n1: N
- Cn1c2ccccc2c2c(=O)c3ccccc3[nH]c21: N
- Cn1c([N+](=O)[O-])cnc1/C=C1\Oc2cc(Cl)ccc2C1=O: N
- CCCCCCCCCCN=C(c1ccc(N(C)C)cc1)c1ccc(N(C)C)cc1: N
- COc1ccc(-c2nnc(N3CCN(C(=O)CN4CCN(c5ccc(OC)cc5)CC4)CC3)nc2-c2ccc(OC)cc2)cc1: N
- CC(=O)[CH-]C(C)=O.[CH2-]C.[CH2-]C.[Tl+3]: N
- Cn1c(/C(C#N)=C/c2ccc3ccccc3c2)cc2ccccc21: Y
- CCCCCCCCCCCC[n+]1ccccc1 (tested in a mixture with another compound): N
- NC(=O)c1cccc(Nc2nccc(Nc3cccc(F)c3)n2)c1: N
- C=C(CN1CCc2ccccc2C1)c1ccc(C(=O)Nc2ccccc2N)cc1: N
- NC(=O)C1(N2CCCCC2)CCN(CCCC(=O)c2ccc(F)cc2)CC1: N
- COc1ccc(CC(C)C(C)Cc2ccc(OC)c(OC)c2)cc1OC (stereo unspecified): N
- CCSc1nc(N)c2cn[nH]c2n1: N
- C=C1CC2(OC1=O)C(=O)N(CCCN1C(=O)C3(CC(=C)C(=O)O3)c3ccccc31)c1ccccc12 (stereo unspecified): N
